Entry source: patent US6518423B1

Property: melting point; scope: individual compounds

Observe how each entry below is paired with its result.
{"test-smiles": "c1ccc2c(c1)Nc1nccnc1N2", "result": "215 to 217 °C"}
{"test-smiles": "O=C1C=CN(Cc2ccc3c(c2)Nc2nccnc2S3)CC1", "result": "233 to 235 °C"}
{"test-smiles": "CCOC(=O)c1c(C)ncn1Cc1ccc2c(c1)Nc1nccnc1S2", "result": "194 to 196 °C"}
{"test-smiles": "COCc1ccc2c(c1)Nc1nccnc1N2C", "result": "169 to 172 °C"}
{"test-smiles": "c1cnc(NCc2ccc3c(c2)Nc2nccnc2S3)nc1", "result": "232 to 235 °C"}

The record that follows has no melting point shown yet.
Entry CCNC(=O)N(Cc1ccc2c(c1)Nc1nccnc1S2)c1cccnc1 — recorded melting point = 210 to 212 °C

---

property-label: melting point

{"compound": "O=C(O)/C=C/c1cn(Cc2ccc3c(c2)Nc2nccnc2S3)cn1", "result": "275 to 276 °C"}
{"compound": "c1cnc2c(n1)Nc1cc(CN3CCCCCCC3)ccc1S2", "result": "133 to 135 °C"}
{"compound": "C#CC/N=C(\\N)Cc1ccc2c(c1)Nc1nccnc1S2.Cl", "result": "222 to 223 °C"}
{"compound": "CC(CCC1CCN(C(=O)NCc2ccc3c(c2)Nc2nccnc2S3)CC1)C(=O)O (stereo not drawn)", "result": "94 to 98 °C"}

Entry O=C1NC(=O)C2(CCN(Cc3ccc4c(c3)Nc3nccnc3S4)CC2)N1 — recorded melting point = > 275 °C

Entry Cc1ccc(NCc2ccc3c(c2)Nc2nccnc2S3)cn1 — recorded melting point = 205 to 208 °C

---

property-label: melting point

Observe how each entry below is paired with its result.
{"compound": "CN1c2ccc(CN)cc2Nc2nccnc21", "melting point": "117 to 122 °C"}
{"compound": "NCCN1CCN(c2ncnc3c2ncn3Cc2ccc3c(c2)Nc2nccnc2S3)CC1", "melting point": "226 to 229 °C"}
{"compound": "NC(=O)NCCN1c2ccccc2Nc2nccnc21", "melting point": "231 to 233 °C"}
{"compound": "CNC(Cc1ccc2c(c1)Nc1nccnc1S2)=NC#N", "melting point": "233 to 234 °C (dec.)"}
{"compound": "OCCC1C2CCCC1CN(Cc1ccc3c(c1)Nc1nccnc1S3)C2 (stereo not shown)", "melting point": "123 to 127 °C"}

Entry O=C(O)c1ccc(C(=O)c2nccn2Cc2ccc3c(c2)Nc2nccnc2S3)cc1 — recorded melting point = 242 to 246 °C

Entry CC(=NC#N)NCc1ccc2c(c1)Nc1nccnc1S2 — recorded melting point = 275 to 277 °C

Entry COC(=O)CC1C2CCCC1CN(Cc1ccc3c(c1)N(C(=O)OC)c1nccnc1S3)C2 (stereo not shown) — recorded melting point = 106 to 108 °C

Entry O=C(O)C1CCC2(CC1)CCN(Cc1ccc3c(c1)Nc1nccnc1S3)C2 (stereo not shown) — recorded melting point = 146 °C (dec.)

Entry O=C(O)CC12CCCC(CN(Cc3ccc4c(c3)Nc3nccnc3S4)C1)C2 (stereo not shown) [Example 104] — recorded melting point = 215 to 217 °C

Entry O=C(Nc1nccs1)c1ccc2c(c1)Nc1nccnc1S2 — recorded melting point = 320 to 322 °C

Entry OCc1nccn1Cc1ccc2c(c1)Nc1nccnc1S2 — recorded melting point = 247 to 250 °C

Entry O=C(O)CNC(=O)NC1CCN(Cc2ccc3c(c2)Nc2nccnc2S3)CC1 — recorded melting point = 207 to 210 °C

Entry O=C(O)c1ccc(-c2cn(Cc3ccc4c(c3)Nc3nccnc3S4)cn2)cc1 — recorded melting point = 264 to 266 °C

---

property-label: melting point

{"molecule": "CS(=O)(=O)/N=C/NCc1ccc2c(c1)Nc1nccnc1S2", "melting point": "175 to 176 °C"}

Entry O=C(O)COCCC1C2CCCC1CN(Cc1ccc3c(c1)Nc1nccnc1S3)C2 (stereo not shown) — recorded melting point = 108 to 113 °C

Entry O=C(O)CSC1CCN(Cc2ccc3c(c2)Nc2nccnc2S3)CC1 — recorded melting point = 148 to 152 °C

Entry O=C(O)C=C1CC2CCC(C1)N2Cc1ccc2c(c1)Nc1nccnc1S2 [Example 118] — recorded melting point = 206 to 208 °C

Entry CC(CCC1CCN(C(=N)Cc2ccc3c(c2)Nc2nccnc2S3)CC1)C(=O)O.Cl (stereo not shown) — recorded melting point = 166 to 171 °C

Entry N#CC(CCC(=O)O)=C1CCN(Cc2ccc3c(c2)Nc2nccnc2S3)CC1 — recorded melting point = 114 to 116 °C

Entry CN(C)S(=O)(=O)NC1CCN(Cc2cnc3c(c2)Nc2nccnc2S3)CC1 — recorded melting point = 205 to 210 °C

Entry CC1C[C@@H](C)C2CN(Cc3ccc4c(c3)Nc3nccnc3S4)CC1C21CC(CC(=O)O)C1 (stereo partly shown) — recorded melting point = 205 to 206 °C

Entry O=C(O)C=C1C2CCCC1CN(Cc1ccc3c(c1)Nc1nccnc1S3)C2 — recorded melting point = 253 to 255 °C

Entry COC(=O)c1ccc(CN2c3ccccc3Nc3nccnc32)cc1 — recorded melting point = 232 to 234 °C

Entry CN1c2ccc(C(O)c3nccn3S(=O)(=O)N(C)C)cc2Nc2nccnc21 (stereo not shown) — recorded melting point = 185 to 190 °C

Entry COC1(CC(=O)O)C2CCCC1CN(Cc1ccc3c(c1)Nc1nccnc1S3)C2 (stereo not shown) [Example 105] — recorded melting point = 225 to 228 °C

Entry O=C(Nc1ccccc1)c1ccc2c(c1)Nc1nccnc1S2 — recorded melting point = 281 to 282 °C

Entry CC(CCC1CCN(CCCc2ccc3c(c2)Nc2nccnc2S3)CC1)C(=O)O (stereo not shown) — recorded melting point = 235 to 238 °C

Entry NC(=O)c1ccc(NCc2ccc3c(c2)Nc2nccnc2S3)nc1 — recorded melting point = 245 to 250 °C

Entry CCC/C(=N\OCC(=O)O)C1CCN(Cc2ccc3c(c2)Nc2nccnc2S3)CC1 — recorded melting point = 193 to 195 °C

Entry CN(C)c1ncnc2c1nc(C(F)(F)F)n2Cc1ccc2c(c1)Nc1nccnc1S2 — recorded melting point = 231 to 233 °C

Entry O=C(NCc1ccc2c(c1)Nc1nccnc1S2)c1ccncc1 — recorded melting point = 249 to 253 °C (dec.)

Entry Cc1cccc2c1Sc1nccnc1N2 — recorded melting point = 165 to 166 °C

Entry c1ccc2ncc(NCc3ccc4c(c3)Nc3nccnc3S4)cc2c1 — recorded melting point = 160 to 164 °C

Entry CCOC(=O)/C=C/c1nccn1Cc1ccc2c(c1)Nc1nccnc1S2 — recorded melting point = 213 to 215 °C

Entry O=S(=O)(NC1CCN(Cc2ccc3c(c2)Nc2nccnc2S3)CC1)N1CCOCC1 — recorded melting point = 189 to 190 °C

---

Property: melting point; scope: individual compounds
Counter-ions that a name gives are not always drawn.

{"compound": "COC(=O)c1ccc(-c2cn(Cc3ccc4c(c3)Nc3nccnc3S4)cn2)cc1 (as salt: trifluoroacetate)", "result": "161 to 162 °C"}

Entry Brc1ccc(NCc2ccc3c(c2)Nc2nccnc2S3)nc1 — recorded melting point = 265 to 268 °C

Entry O=C(NCCc1cn(Cc2ccc3c(c2)Nc2nccnc2S3)cn1)c1ccccc1 — recorded melting point = 231 to 233 °C

Entry COC(=O)c1ccc2c(c1)Nc1nccnc1S2 — recorded melting point = 265 to 268 °C

Entry CC(C)(O)CC1CCN(Cc2ccc3c(c2)Nc2nccnc2S3)CC1 — recorded melting point = 187 to 188 °C

Entry CS(=O)(=O)NC1CN=C(Cc2ccc3c(c2)Nc2nccnc2S3)NC1.Cl (stereo not drawn) — recorded melting point = 275 to 277 °C

---

property-label: melting point

Observe how each entry below is paired with its result.
{"compound": "O=C(O)Cc1ccc(C2(O)CCN(Cc3ccc4c(c3)Nc3nccnc3S4)CC2)cc1", "result": "192 °C (dec.)"}
{"compound": "O=Cc1nccn1Cc1ccc2c(c1)Nc1nccnc1S2", "result": "218 to 219 °C"}
{"compound": "O=C(O)CCNC(=O)Cc1ccc2c(c1)Nc1nccnc1S2", "result": "220 to 225 °C"}
{"compound": "COCc1ccc2c(c1)Nc1nccnc1S2", "result": "189 to 192 °C"}
{"compound": "O=C(Nc1ccccc1)OCc1ccc2c(c1)Nc1nccnc1S2", "result": "237 to 240 °C"}

Entry CN1c2ccc(C#CCO)cc2Nc2nccnc21 — recorded melting point = 241 to 243 °C

Entry CCOC(=O)CC1C2CCCC1CN(Cc1ccc3c(c1)Nc1nccnc1S3)C2 (centres unmarked) — recorded melting point = 142 to 143 °C

Entry CNS(=O)(=O)NC1CCN(Cc2ccc3c(c2)Nc2nccnc2O3)CC1 — recorded melting point = 219 to 222 °C

Entry C/C(=C\c1c(C)ncn1Cc1ccc2c(c1)Nc1nccnc1S2)C(=O)O — recorded melting point = > 298 °C

Entry Brc1nccn1Cc1ccc2c(c1)Nc1nccnc1S2 — recorded melting point = 256 to 258 °C

Entry COC(=O)CC1C2CCCC1CN(Cc1ccc3c(c1)N(C(C)=O)c1nccnc1S3)C2 (centres unmarked) — recorded melting point = 160 to 162 °C
